B1: COX4I1 (parent)
chain: VAHVKHLSASQKALKEKEKASWSS

variants of: B1; test: protein stability index of a GFP-peptide fusion (GPS, HEK-293T) (PSI 1-6); higher = more stable; conditions: c terminus: a fixed tail appended;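 note: lentivirally expressed fusions sorted by FACS into six bins by GFP to DsRed ratio, PSI derived from sequencing read proportions per bin multiplied by bin number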
The reader will find reported protein stability index values listed item by item below.
Response field accepts a number only; no unit should be typed.

Worked examples follow.
L7Y | 3.36
K12I | 2.71
L7E | 4.3
S8I | 3.1
Q11T | 2.86
K17L | 2.71

**Q:** Report protein stability index for `H3P`
**A:** 3.73
